assay: HaCaT cell viability by CCK-8 assay; type: cell-based; details: human, hacat cells, 0.10 μg/mL
Measured viability at 24 h accompanies every entry in the list below.
Give the number; % is assumed, so skip it.

Asked: Find the recorded viability at 24 h belonging to N#CC[C@H](C1CCCC1)n1cc(-c2nc(Nc3ccc(C(=O)NCCCCNc4cccc5c4C(=O)N(C4CCC(=O)NC4=O)C5=O)cc3)nc3[nH]ccc23)cn1 (some centres unmarked) and report it.
Given back: 85.7

Now for another entry.
Asked: Which measured viability at 24 h value corresponds to CCS(=O)(=O)N1CC(CC#N)(n2cc(-c3nc(Nc4ccc(C(=O)NCCCCNc5cccc6c5C(=O)N(C5CCC(=O)NC5=O)C6=O)cc4)nc4[nH]ccc34)cn2)C1 (centres unmarked) ?
Given back: 95.6

---

# reported viability at 24 h; entries follow
assay: HaCaT cell viability by CCK-8 assay; type: cell-based; details: human, hacat cells, 20.00 μg/mL
Express your answer in %, writing the number without its unit.

Asked: Can you share its viability at 24 h? I mean this molecule: N#CC[C@H](C1CCCC1)n1cc(-c2nc(Nc3ccc(C(=O)NCCCCNc4cccc5c4C(=O)N(C4CCC(=O)NC4=O)C5=O)cc3)nc3[nH]ccc23)cn1 (some centres unmarked)
Given back: 80.3

Pending molecule:
Asked: What value of viability at 24 h has been reported for the following molecule? CCS(=O)(=O)N1CC(CC#N)(n2cc(-c3nc(Nc4ccc(C(=O)NCCCCNc5cccc6c5C(=O)N(C5CCC(=O)NC5=O)C6=O)cc4)nc4[nH]ccc34)cn2)C1 (centres unmarked)
Given back: 93.3

---

experiment: HaCaT cell viability by CCK-8 assay; assay type: cell-based; conditions: human, hacat cells, 2.00 μg/mL
Test readout: viability at 24 h
Could you give the number and then its unit, please?

Asked: Return reported viability at 24 h; argument: N#CC[C@H](C1CCCC1)n1cc(-c2nc(Nc3ccc(C(=O)NCCCCNc4cccc5c4C(=O)N(C4CCC(=O)NC4=O)C5=O)cc3)nc3[nH]ccc23)cn1 (some centres unmarked)
Given back: 93.8%

Next up:
Asked: Please look up its viability at 24 h: CCS(=O)(=O)N1CC(CC#N)(n2cc(-c3nc(Nc4ccc(C(=O)NCCCCNc5cccc6c5C(=O)N(C5CCC(=O)NC5=O)C6=O)cc4)nc4[nH]ccc34)cn2)C1 (centres unmarked)
Given back: 107%

---

test: HaCaT cell viability by CCK-8 assay; type: cell-based; details: human, hacat cells, 0.05 μg/mL
viability at 24 h values for the compounds below.
Response body: numeric value in %, unit text excluded.

Asked: Which value of viability at 24 h has been reported for N#CC[C@H](C1CCCC1)n1cc(-c2nc(Nc3ccc(C(=O)NCCCCNc4cccc5c4C(=O)N(C4CCC(=O)NC4=O)C5=O)cc3)nc3[nH]ccc23)cn1 (some centres unmarked) in the records?
Given back: 80.5

Here's the next entry for you.
Asked: Looking for the measured viability at 24 h of CCS(=O)(=O)N1CC(CC#N)(n2cc(-c3nc(Nc4ccc(C(=O)NCCCCNc5cccc6c5C(=O)N(C5CCC(=O)NC5=O)C6=O)cc4)nc4[nH]ccc34)cn2)C1 (centres unmarked) , can you help?
Given back: 95.5

---

experiment: HaCaT cell viability by CCK-8 assay; assay type: cell-based; conditions: human, hacat cells, 1.00 μg/mL
Test readout: viability at 24 h (%)
Quick reminder: number only, in %, skip the unit.

Asked: Please look up its viability at 24 h: N#CC[C@H](C1CCCC1)n1cc(-c2nc(Nc3ccc(C(=O)NCCCCNc4cccc5c4C(=O)N(C4CCC(=O)NC4=O)C5=O)cc3)nc3[nH]ccc23)cn1 (some centres unmarked) [Compound 1]
Given back: 98.3

Then there is this compound:
Asked: Return reported viability at 24 h; argument: CCS(=O)(=O)N1CC(CC#N)(n2cc(-c3nc(Nc4ccc(C(=O)NCCCCNc5cccc6c5C(=O)N(C5CCC(=O)NC5=O)C6=O)cc4)nc4[nH]ccc34)cn2)C1 (centres unmarked) [Compound 2]
Given back: 101

---

Test: HaCaT cell viability by CCK-8 assay
Format: cell-based
Conditions: human, hacat cells, 5.00 μg/mL
Procedure: (1) Reagents: compound 1: a compound shown by Compound 1 in Formula (I); compound 2: a compound shown by Compound 2 in Formula (I); Dulbecco's Modified Eagle Medium (DMEM) high-glucose medium: Wuhan Pricella Biotechnology Co., Ltd.; South American fetal bovine serum (FBS) and trypsin: Gibco, USA; penicillin-streptomycin: Hyclone, USA; and CCK-8 kit: Beyotime. (2) Instruments: CO2 incubator: HERA cell 240; and microplate reader: Thermo Fisher Scientific, USA. […]
Consider the following molecules and their measured viability at 24 h readings.
Just so you know, I need the unit written after the number.

Asked: May I ask what viability at 24 h has been recorded for CCS(=O)(=O)N1CC(CC#N)(n2cc(-c3nc(Nc4ccc(C(=O)NCCCCNc5cccc6c5C(=O)N(C5CCC(=O)NC5=O)C6=O)cc4)nc4[nH]ccc34)cn2)C1 (centres unmarked) ?
Given back: 124%

Could you now consider this next molecule?
Asked: Form field: reported viability at 24 h of N#CC[C@H](C1CCCC1)n1cc(-c2nc(Nc3ccc(C(=O)NCCCCNc4cccc5c4C(=O)N(C4CCC(=O)NC4=O)C5=O)cc3)nc3[nH]ccc23)cn1 (some centres unmarked)
Given back: 108%

---

assay: HaCaT cell viability by CCK-8 assay; format: cell-based; conditions: human, hacat cells, 0.20 μg/mL
Overview of reported viability at 24 h across a group of molecules:

Asked: Item CCS(=O)(=O)N1CC(CC#N)(n2cc(-c3nc(Nc4ccc(C(=O)NCCCCNc5cccc6c5C(=O)N(C5CCC(=O)NC5=O)C6=O)cc4)nc4[nH]ccc34)cn2)C1 (centres unmarked) has what recorded viability at 24 h?
Given back: 106%

With those in mind, consider the next molecule.
Asked: Can you share its viability at 24 h? I mean this molecule: N#CC[C@H](C1CCCC1)n1cc(-c2nc(Nc3ccc(C(=O)NCCCCNc4cccc5c4C(=O)N(C4CCC(=O)NC4=O)C5=O)cc3)nc3[nH]ccc23)cn1 (some centres unmarked)
Given back: 90.7%
